B1: CPEB3 Ribozyme (parent)
chain: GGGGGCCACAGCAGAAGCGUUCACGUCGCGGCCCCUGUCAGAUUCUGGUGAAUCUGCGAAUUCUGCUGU

- Variants of: B1
- method_summary: self-cleavage, relative activity (ratio to wild type); higher = more cleavage; co-transcriptional
Collected self-cleavage values appear next to each entry.
Write no unit; give the number alone.

// returns reported self-cleavage for input U62A G68C 0.949

Any idea what self-cleavage was measured for A52C C63U ? 0.973

GET /values?readout=self-cleavage&item= A16G C54U 0.928

Which self-cleavage value belongs to G41U U43C ? 0.357

Any idea what its self-cleavage is? The variant is A23G G58C 0.97

Recorded self-cleavage of U38A G48A , please. 0.938

For the variant G17C G50A , what self-cleavage is on record? 0.142

Would you mind telling me what self-cleavage value was observed for G3U C34A ? 0.687

Which self-cleavage is reported for this variant? C12G C39G 0.455

Give its self-cleavage value. Item: U46C U64C 0.936
